Target of assay: T1, human PCSK9 (PCSK9 antigen, SEQ ID NO. 53) (human, UniProt A8T644 31-152; Q8NBP7 153-692, Biotin-labelled on amines in the MSD-SET and sorting experiments; positions not given.)
T1 construct: Biotin-labelled in MSD-SET; also called PCSK9-WT; PCSK9 protein
Procedure details: MSD-SET, Fab with biotin-PCSK9 in solution, IgG on plate, pH 6.0
# maps each entry to its Kd
Please state the figure in nM; there is no need to write the unit.

ADI-10089 Fab (Fab, V domains shown) VH: QLQLQESGPGLVKPSETLSLTCTVSGGSIGSSSYYWTWIRQPPGKGLEWIGSINYRGSTYYNPSLKSRVTISVDTSKNQFSLKLSSVTAADTAVYYCARENSGVVPAAGPNWFDPWGQGTLVTVSS VL: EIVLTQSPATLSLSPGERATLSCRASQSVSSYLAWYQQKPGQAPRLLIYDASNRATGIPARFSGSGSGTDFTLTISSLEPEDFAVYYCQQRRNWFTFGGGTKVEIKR	0.01
ADI-10085 Fab (Fab, V domains shown) VH: QLQLQESGPGLVKPSETLSLTCTVSGGSIVSSSYYWAWIRQPPGKGLEWIGSINYKGSTYYNPSLKSRVTISVDTSKNQFSLKLSSVTAADTAVYYCARENSGVVPAAGPNWFGPWGQGTLVTVSS VL: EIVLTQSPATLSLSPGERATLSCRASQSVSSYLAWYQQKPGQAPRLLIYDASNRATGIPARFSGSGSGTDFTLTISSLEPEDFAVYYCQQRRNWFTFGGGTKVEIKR	0.0059

# input for lookup
Prompt: Given the binder ADI-09113 Fab (Fab, V domains shown) VH: QLQLQESGPGLVKPSETLSLTCTVSGGSVSSSSYYWGWIRQPPGKGLEWIGSAYYSGSTYYNPSLKSRVTISVDTSKNQFSLKLSSVTAADTAVYYCARENSGVVPAAGPNWFDPWGQGTLVTVSS VL: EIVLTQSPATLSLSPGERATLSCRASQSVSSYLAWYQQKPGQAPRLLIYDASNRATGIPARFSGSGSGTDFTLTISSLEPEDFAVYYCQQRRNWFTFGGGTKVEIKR , what is its reported Kd?
Response: 0.65
